Just for reference, patent US9518052B2 is where these values come from.

Target: JAK1 (Homo sapiens (Human))
Sequence (P23458 whole entry, species assumed): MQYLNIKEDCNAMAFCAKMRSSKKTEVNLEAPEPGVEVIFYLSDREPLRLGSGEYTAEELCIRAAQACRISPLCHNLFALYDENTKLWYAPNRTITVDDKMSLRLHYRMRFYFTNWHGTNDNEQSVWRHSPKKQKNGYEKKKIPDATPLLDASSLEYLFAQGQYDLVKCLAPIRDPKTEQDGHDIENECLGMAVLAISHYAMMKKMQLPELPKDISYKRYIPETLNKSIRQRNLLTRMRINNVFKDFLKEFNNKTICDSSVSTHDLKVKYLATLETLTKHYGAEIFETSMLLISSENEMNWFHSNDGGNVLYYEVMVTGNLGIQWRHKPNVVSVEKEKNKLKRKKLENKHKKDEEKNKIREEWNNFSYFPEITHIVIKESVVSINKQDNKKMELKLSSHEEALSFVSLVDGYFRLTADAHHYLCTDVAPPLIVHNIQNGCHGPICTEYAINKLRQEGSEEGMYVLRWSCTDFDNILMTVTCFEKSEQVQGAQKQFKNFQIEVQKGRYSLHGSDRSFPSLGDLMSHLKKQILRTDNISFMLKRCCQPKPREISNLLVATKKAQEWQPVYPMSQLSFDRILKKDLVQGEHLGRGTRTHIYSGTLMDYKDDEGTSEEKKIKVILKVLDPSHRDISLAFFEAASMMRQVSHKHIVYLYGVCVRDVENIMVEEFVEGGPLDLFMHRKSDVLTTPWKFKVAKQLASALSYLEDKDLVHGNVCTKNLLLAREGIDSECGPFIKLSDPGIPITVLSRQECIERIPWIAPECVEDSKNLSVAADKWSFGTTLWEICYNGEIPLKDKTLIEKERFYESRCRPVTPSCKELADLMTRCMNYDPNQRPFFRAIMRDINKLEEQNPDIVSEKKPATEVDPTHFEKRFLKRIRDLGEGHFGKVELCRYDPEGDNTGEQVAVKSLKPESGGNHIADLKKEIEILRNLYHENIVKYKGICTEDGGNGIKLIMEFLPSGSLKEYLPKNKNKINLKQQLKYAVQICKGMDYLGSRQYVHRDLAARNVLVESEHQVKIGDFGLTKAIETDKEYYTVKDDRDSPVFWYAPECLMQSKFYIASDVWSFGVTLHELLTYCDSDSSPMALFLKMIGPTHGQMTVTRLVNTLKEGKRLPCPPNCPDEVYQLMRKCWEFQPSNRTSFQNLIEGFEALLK
Where a name gives a salt, the structure may show the parent alone.
experimentalEndpoint: IC50 (nM)

Worked examples follow.
{"columns": ["compound", "IC50 / nM"],
 "data": [
  ["CNC(=O)c1n[nH]c2nc(-c3cc(F)c(O)cc3CC(F)(F)F)nc(NCc3ccccc3N(C)S(N)(=O)=O)c12", 6.4],
  ["CNC(=O)c1n[nH]c2cc(-c3cc(F)c(O)cc3CC(F)(F)F)nc(NCc3ccccc3N(C)S(=O)(=O)c3cccnc3)c12", 14.2]
]}

(P) CCc1cc(O)c(F)cc1-c1cc2[nH]nc(C(=O)NC)c2c(NCc2cc(Cl)ccc2N(C)S(C)(=O)=O)n1
(Q) CCc1cc(O)c(F)cc1-c1cc2[nH]ncc2c(N(C)Cc2ccccc2N(CC)S(C)(=O)=O)n1 [Example 145, hydrochloride]
(R) CCN(c1ccc(Cl)cc1CNc1nc(-c2cc(F)c(O)cc2CC(F)(F)F)cc2[nH]nc(C(N)=O)c12)S(C)(=O)=O
(S) CCN(c1ccccc1CNc1nc(-c2cc(F)c(O)cc2CC(F)(F)F)cc2[nH]nc(C(=O)NC)c12)S(=O)(=O)CC
Query string: I would appreciate it if you could sort these 4 compounds by IC50, starting from the smallest number. # format: label list in the order the request specifies
Result string: Q, P, S, R
